target: Torsin-1A-interacting protein 1 (Homo sapiens) (UniProt Q5JTV8); experiment: LAP1 binders from COS7 cell lysate, primary screen, small-molecule microarray, 635/667 nm fluorescence (AID 1116); settings: COS7-hLAP1 lysate binding, 635 nm fluorescence, higher = more signal
Sequence (Q5JTV8 whole entry, looked up): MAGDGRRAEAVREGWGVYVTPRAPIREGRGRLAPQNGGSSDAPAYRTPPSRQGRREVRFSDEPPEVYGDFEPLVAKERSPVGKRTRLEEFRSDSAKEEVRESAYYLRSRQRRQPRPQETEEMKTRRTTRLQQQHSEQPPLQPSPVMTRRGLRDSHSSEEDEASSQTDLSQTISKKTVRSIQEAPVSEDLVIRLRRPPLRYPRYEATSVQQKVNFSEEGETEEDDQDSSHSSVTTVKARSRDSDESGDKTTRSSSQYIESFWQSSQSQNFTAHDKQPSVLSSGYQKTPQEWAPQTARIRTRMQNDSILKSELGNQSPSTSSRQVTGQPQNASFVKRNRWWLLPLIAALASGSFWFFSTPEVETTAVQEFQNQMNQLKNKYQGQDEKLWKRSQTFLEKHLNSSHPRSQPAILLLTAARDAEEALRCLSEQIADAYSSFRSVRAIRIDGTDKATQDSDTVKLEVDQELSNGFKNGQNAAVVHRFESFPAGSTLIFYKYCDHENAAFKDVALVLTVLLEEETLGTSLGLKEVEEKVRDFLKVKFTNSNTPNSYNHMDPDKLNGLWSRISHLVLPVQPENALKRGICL
measurementLabel: composite z-score

1. CO[C@H]1O[C@H](CO)[C@@H](OC(=O)CCc2ccccc2)[C@@H]2OC(=O)[C@H](Cc3ccccc3)C/C=C/C[C@@H](Cc3ccccc3)C(=O)O[C@@H]12: 0.108
2. C#CCN1C(C(=O)OCC)OC[C@H]1c1ccccc1 (some centres not stated): 1.49
3. CCOC(=O)C[C@H]1[C@H](OC(=O)c2ccc(C(=O)c3ccccc3)cc2)[C@@H](NC(=O)Cc2ccc(OC)cc2)c2cc(OCCCO)ccc2N1C(=O)Cc1ccc(OC)cc1: 0.743
4. C=C(C1=CCN(S(=O)(=O)c2ccc(C)cc2)C1)[C@@H](OC(C)=O)[C@@H]1CCCN1S(=O)(=O)c1ccccc1[N+](=O)[O-]: 0.156
5. [N-]=[N+]=NCc1ccccc1C[C@@]1(C(=O)O)N=C(c2ccc(OCCCO)cc2)O[C@@H]1c1ccccc1: 1.75
6. O=C1O[C@@H](c2ccccc2)[C@@H](c2ccccc2)N2[C@@H](c3ccc(OCCO)cc3)[C@]3(C(=O)Nc4ccc(C#CC5(O)CCCCCC5)cc43)[C@@H](C(=O)NC[C@H](O)c3ccccc3)[C@H]12: 1.94
7. O=C1O[C@H](c2ccccc2)[C@H](c2ccccc2)N2[C@H]1[C@@H](C(=O)Nc1nc3ccccc3s1)[C@]1(C(=O)Nc3ccc(C#CCCO)cc31)[C@H]2c1ccccc1OCCO: 1.26
8. CCN(CC)c1ccc(N2CC=CC34O[C@@H]5C=CCOC(=O)[C@@H]5[C@H]3C(=O)N(C(C)CO)[C@@H]4C2=O)cc1 (some centres not stated): -0.438
9. C=C(COC)/C(=C/C[C@H](OC(C)=O)c1cccc(OCCO)c1)c1cc(C(=O)OC)ccc1OC: 0.188
10. COCCOC(=O)N1C(=O)[C@@]2(c3cc(C#CCCO)ccc31)[C@H](c1ccccc1OCCO)N1[C@H](c3ccccc3)[C@H](c3ccccc3)OC(=O)[C@H]1[C@@H]2C(=O)NC[C@H](O)c1ccccc1: 1.38
11. CO[C@H]1O[C@H](CO)[C@@H](OC(=O)Nc2ccccc2)[C@H](OC(=O)Nc2ccccc2-c2ccccc2)[C@H]1OC(=O)Nc1ccccc1-c1ccccc1: 2.08
12. Cc1ccc(S[C@]2(C(=O)NC3CC3)CC(=O)N(Cc3ccccc3C(F)(F)F)[C@@H]2c2ccc(CO)cc2I)cc1: 0.955
13. O=C(O)[C@H]1C[C@H]2C(=O)N[C@@H](Cc3ccccc3)C(=O)N2[C@H]1c1ccc(O)cc1: 0.777
14. Cc1ccc(N2C(=O)c3ccccc3[C@](C)(C(=O)NCC(F)(F)F)[C@@H]2c2ccc(CO)cc2)nc1: -0.438
15. COCCOC(=O)N1C(=O)[C@@]2(c3cc(C#CC4(O)CCCCCC4)ccc31)[C@H](c1ccccc1OCCO)N1[C@H](c3ccccc3)[C@H](c3ccccc3)OC(=O)[C@H]1[C@@H]2C(=O)Nc1nc2ccccc2s1: 1.46
16. C=C(C(=O)CC[C@H](OC(C)=O)c1ccc(CO)o1)C(C)C: 1.15
17. C=C1C=C(Br)C2(OCCCO2)[C@H]2OC12 (some centres not stated): -0.0068
18. CC(C)C(=C=CC[C@H](O)c1ccc(OCCO)cc1)C[C@H](O)COCc1ccccc1: 0.833
19. C[C@@H](OCc1ccccc1)C1NC(=O)[C@@]23C(=O)N[C@@H](Cc4ccccc4)C2[C@H](C)[C@@]2(C)O[C@H]2C3/C=C/C/C=C\CNC(=O)[C@@H]2CCCN2C1=O (some centres not stated): -0.417
20. COC(=O)C1=CC(CCCO)=CC(C2CC2)N(Cc2cc3c(cc2Br)OCO3)C=C1C(=O)OC (configuration not stated): 3.07
21. C=CCN1C(=O)[C@]2(O[C@H](CCn3cc([C@H](O)c4ccccc4)nn3)[C@@H]([Si](C)(C)c3ccc(OC)cc3)[C@@H]2C)c2cc(N3CCOC3=O)ccc21: 0.525
22. COc1ccc(CCNC(=O)[C@@]2(Sc3ccc(C)cc3)CC(=O)N(Cc3ccccc3)[C@@H]2c2ccc(CO)cc2I)cc1: -0.72
23. COCCOC(=O)N1C(=O)[C@@]2(c3cc(C#CC4(O)CCCCCC4)ccc31)[C@H](c1ccc(O)cc1)N1[C@H](c3ccccc3)[C@H](c3ccccc3)OC(=O)[C@H]1[C@@H]2C(N)=O: 0.852
24. CC(C)N1CC=CC23O[C@@H]4/C=C\CCCOC(=O)C4[C@H]2C(=O)N(CCCO)[C@@H]3C1=O (some centres not stated): -0.0239
25. O=c1n(-c2ccccc2)c(=O)n2n1CC(COc1ccccc1)=C1[C@@H](CCc3ccccc3)OB(O)C[C@@H]12: 0.684
26. O=C1N(CCS(=O)(=O)c2ccccc2)Cc2ccccc2[C@@H]2OC(c3ccc(OCCCO)cc3)=N[C@]12Cc1ccccc1: 1.16
27. C=CCC(OC(C)=O)[C@@H]1[C@@H](N(Cc2cccc3ccccc23)C(=O)c2cccc3ccccc23)c2cc(OCCCO)ccc2N1C(=O)Cc1ccc(OC)cc1 (some centres not stated): 0.703
